tgt: T1, proprotein convertase subtilisin/kexin type 9 (PCSK9) (human, UniProt Q8NBP7 31-692)
T1 construct: His-tagged full-length PCSK9 in TR-FRET and SPR, biotinylated in phage ELISA; secreted protein is autoprocessed (prodomain plus catalytic/CRD chain starting at S153); also called rec.PCSK9; His-PCSK9
experiment-summary: phage spot ELISA;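 further: phage clones bound to PCSK9 or PCSK9Δhelix by ELISA, noise being the same phage on NeutrAvidin, positive when signal above 0.4 and signal:noise above 2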
outcome-measure: s/n ratio
One number for each entry.

Some binders with recorded s/n ratio:
>  <binder>
TAFTSWEEYLDWV [phage-displayed Pep2-8V2A]

>  <s/n ratio>
16.7

$$$$
>  <binder>
TAFTSWEEYLDWVGSGRGGYELNIPR [SEQ ID NO 326]

>  <s/n ratio>
26.1

$$$$
>  <binder>
TAFTSWEEYLDWVGSGKNNYAYLINMPRAPGI [SEQ ID NO 325]

>  <s/n ratio>
24.7

$$$$
>  <binder>
TAFTSWEEYLDWVGSGVPWNLARL [SEQ ID NO 314]

>  <s/n ratio>
29.3

$$$$
>  <binder>
TAFTSWEEYLDWVGSGMVYVDRGVRVFT [SEQ ID NO 322]

>  <s/n ratio>
27.9

$$$$

List s/n ratio for every entry below, keeping the order given.
1. TAFTSWEEYLDWVGSGPHSYWLDRVQ [SEQ ID NO 332]
2. TAFTSWEEYLDWVGSGALWNMRRVESVAFR [SEQ ID NO 319]
3. TAFTSWEEYLDWVGSGMPWNLARIER [SEQ ID NO 318]
4. TAFTSWEEYLDWVGSGNCWSSLRGICENLG [SEQ ID NO 307]

Response line:
1: 25.3; 2: 23.9; 3: 27.8; 4: 21.7
